Reported IC50 by item:
System: 41M-cisR
Assay: cytotoxicity assay, sulforhodamine B
Format: cell-based, human
Conditions: 96 hrs, mean ± SD or individual values when n<3
Excerpt: In Table 2, reference is made to cell lines 41M, 41M-cisR, SKOV-3, CH1 and CH1-cisR. J. Cancer 69 1-7. The characteristics of the cell line pairs CH1/CH1 cisR, 41M/41McisR and 41M/SKOV3 are described in Table 3. The cytotoxicity assay used sulforhodamine B which stains the basic amino acids. […] Absorbance was read at a wavelength of 570 nm using a 96 well plate reader Dynatech MR 5000 plate reader. Absorbance of treatment cells was expressed as a percentage of positive (drug-free) controls. […]
Enter your answer as a number in µM; do not include the unit.

Reference set (4 entries):
>>> recorded_value("[Cl-].[Cl-].c1ccc([P+]2(c3ccccn3)CC[P+](c3ccccn3)(c3ccccn3)[Au-3]23[P+](c2ccccn2)(c2ccccn2)CC[P+](c2ccccn2)(c2ccccn2)[Au-3]2([P+](c4ccccn4)(c4ccccn4)CC[P+]2(c2ccccn2)c2ccccn2)[P+](c2ccccn2)(c2ccccn2)CC[P+]3(c2ccccn2)c2ccccn2)nc1 [[Au2 (d2pype)4]Cl2]")
0.6
>>> recorded_value("Cl.c1cncc([P+]2(c3cccnc3)CC[P+](c3cccnc3)(c3cccnc3)[Au-3]23[P+](c2cccnc2)(c2cccnc2)CC[P+]3(c2cccnc2)c2cccnc2)c1 [[Au(d3pype)2]Cl]")
11
>>> recorded_value("[Au+].[Au+].[Cl-].[Cl-].c1cncc(P(CCP(c2cccnc2)c2cccnc2)c2cccnc2)c1.c1cncc(P(CCP(c2cccnc2)c2cccnc2)c2cccnc2)c1 [[Au2 (d3pype)2 Cl2]]")
47
>>> recorded_value("[Au+].[Cl-].c1ccc(P(CCP(c2ccccc2)c2ccccn2)c2ccccn2)cc1.c1ccc(P(CCP(c2ccccc2)c2ccccn2)c2ccccn2)cc1 (stereo not drawn) [[Au(2-pyppe)2]Cl]")
0.1

Lab note: measured IC50 of Cl.c1cncc([P+]2(c3cccnc3)CC[P+](c3cccnc3)(c3cccnc3)[Cu-3]23[P+](c2cccnc2)(c2cccnc2)CC[P+]3(c2cccnc2)c2cccnc2)c1 [[Cu(d3pype)2]Cl] was 30

###

System: HeLa-S1a
Experiment: cell survival after drug treatment ([methyl-3H]-thymidine)
Format: cell-based, human
Conditions: HeLa-S1a; mean ± SD or individual values when n<3; 5-7 days
Reported pIC50 by item:
Please report pIC50 as the negative decimal logarithm of the molar concentration, giving only the number.

Lab note: measured pIC50 of [Au+].[Au+].[Cl-].[Cl-].c1cncc(P(CCP(c2cccnc2)c2cccnc2)c2cccnc2)c1.c1cncc(P(CCP(c2cccnc2)c2cccnc2)c2cccnc2)c1 [[Au2 (d3pype)2 Cl2]] was 6.40

Lab note: measured pIC50 of [Cl-].[Cl-].c1ccc([P+]2(c3ccccn3)CC[P+](c3ccccn3)(c3ccccn3)[Au-3]23[P+](c2ccccn2)(c2ccccn2)CC[P+](c2ccccn2)(c2ccccn2)[Au-3]2([P+](c4ccccn4)(c4ccccn4)CC[P+]2(c2ccccn2)c2ccccn2)[P+](c2ccccn2)(c2ccccn2)CC[P+]3(c2ccccn2)c2ccccn2)nc1 [[Au2 (d2pype)4]Cl2] was 7.22

Lab note: measured pIC50 of [Cl-].c1cc([P+]2(c3ccncc3)CC[P+](c3ccncc3)(c3ccncc3)[Au-3]23[P+](c2ccncc2)(c2ccncc2)CC[P+]3(c2ccncc2)c2ccncc2)ccn1 [[Au(d4pype)2]Cl] was 6.52
